Data provenance: ChEMBL document CHEMBL3392980

CC50: recorded values
# experiment-notes: Cytotoxicity against human A549 cells
# Type: cell-based
observed-property: CC50 (µM)

line-notation: O=c1[nH]cnc2c1ncn2CCN(CCCCP(=O)(O)O)CCP(=O)(O)O
uom: µM
relation-operator: =
numeric-result: 44
//
line-notation: CC(C)OC(=O)[C@H](Cc1ccccc1)NP(=O)(CCN(CCC#N)CCn1cnc2c(=O)[nH]cnc21)N[C@@H](Cc1ccccc1)C(=O)OC(C)C
uom: µM
relation-operator: >
numeric-result: 300
//
line-notation: CC(C)OC(=O)[C@H](Cc1ccccc1)NP(=O)(CCN(CCC#N)CCn1cnc2c(=O)[nH]c(N)nc21)N[C@@H](Cc1ccccc1)C(=O)OC(C)C
uom: µM
relation-operator: =
numeric-result: 16
//
line-notation: Nc1nc2c(ncn2CCN(CCCCP(=O)(O)O)CCP(=O)(O)O)c(=O)[nH]1
uom: µM
relation-operator: =
numeric-result: 242
